compound: CC(C)CN1C(=O)N(C)C2(NC(=O)NC2=O)c2ccccc21 (stereo not given)
melting point: 270 °C
--
compound: Cn1cc(CS(C)(=O)=O)c(=O)c2ccc(C(F)(F)F)cc21
melting point: 240 to 242 °C
--
compound: CCCCc1cnc(-c2ccc(C#N)c(F)c2)nc1
melting point: 87 °C
--
compound: CCC(Cc1cccc(F)c1)n1nnc2cc3c(cc2c1=O)OC1CCCN1C3=O (stereo not given)
melting point: 117 to 119 °C
--
compound: CC1(C)COC(c2cc3c(O)cccc3o2)=N1
melting point: 187 to 188 °C
--
compound: O=C(CN1CCOCC1)NC(c1ccccc1)C1(c2ccc(Cl)cc2)CCC1 (stereo not given)
melting point: 95 to 97 °C
--
compound: COc1ccccc1C(=O)c1cccc(N)c1
melting point: 81 °C
--
compound: Cc1[nH]c2ccccc2c1C(=O)C(=O)N1CCC(Oc2ccc(F)cc2)CC1
melting point: 213 to 214 °C
--
compound: CC(C)(C)OC(=O)N1CCC(C(=O)O)(C2CCCCC2)CC1
melting point: 156 °C
--
compound: C#CCOC(=O)C1=C(C)NN=C(CC)C1c1cccc([N+](=O)[O-])c1 (stereo not given)
melting point: 70 °C

====

The reader will find reported melting point values listed item by item below.
endpoint-name: melting point

compound: CCOCCOc1ccccc1COc1ccc2c(c1)C=C(C(=O)Nc1ccc(CN(C)C3CCOCC3)cc1)CCS2(=O)=O
endpoint-name: melting point
value: 132 to 136 °C

compound: CC(C)(C)OC(=O)CN1C(=O)C(N2C(=O)c3ccccc3C2=O)CCc2ccccc21 (stereo not given)
endpoint-name: melting point
value: 194 to 197 °C

compound: COc1cc2cc(-c3c[nH]c4ccccc34)cnc2cc1OC
endpoint-name: melting point
value: 204 to 206 °C

compound: O=C(N[C@@H](Cc1ccccc1)C[C@H](O)[C@H](Cc1ccccc1)NC(=O)OCc1cscn1)OCc1cscn1
endpoint-name: melting point
value: 64 to 66 °C

compound: CC(C)(C)c1nc2cc(N3CCOCC3)c(N)cc2s1
endpoint-name: melting point
value: 158 to 159 °C

====

The reader will find reported melting point values listed item by item below.

compound: COc1ccc(S(=O)(=O)Nc2ccc(C)cc2)c2c1[nH]c1ccccc12
melting point: 199 to 203 °C

compound: CS(=O)(=O)Nc1cccc(Nc2nc(OCC3CCCCC3)c3nc[nH]c3n2)c1
melting point: 169 to 172 °C

compound: CN(c1cccc2cc(C(N)=O)[nH]c12)S(=O)(=O)c1nccs1
melting point: 220 to 221 °C

compound: CCOC(=O)C1C(=O)NC(=O)C(C#N)C12CCCCC2 (stereo unspecified)
melting point: 167 to 170 °C

compound: COC(=O)CCCOc1cc([N+](=O)[O-])c(C(C)NC(=O)C(F)(F)F)cc1OC (stereo unspecified)
melting point: 156 to 157 °C

compound: CCOC(=O)c1cnn(-c2ccc(F)cc2)c1O
melting point: 127 to 128 °C

compound: CNC(=O)c1c(-c2ccccc2)noc1CC(=O)c1ccccc1
melting point: 125 to 128 °C

compound: COc1cc(Nc2nccc(-c3ccc(Cl)nc3)n2)cc(OC)c1OC
melting point: 191 to 192 °C

compound: CCN(Cc1ccc(OC(C)(C)C(=O)O)c(C)c1)c1cc(-c2ccc(Cl)cc2)nn1C
melting point: 208 °C

compound: CC1(C)C2C=CC3(C)C(C2)C(=O)CCC13O (stereo unspecified)
melting point: 112 to 115 °C

compound: COC(=O)c1cc(OC)c(C(=O)OC)cc1OC
melting point: 141 to 143 °C

compound: CSC(=C[N+](=O)[O-])Nc1ccc(Cl)nc1
melting point: 169 to 171 °C

compound: O=C(Oc1ccccc1)N1CCC(c2nn(C(=O)c3ccccc3)c3cc(F)ccc23)CC1
melting point: 137 to 139 °C

compound: Cc1cc(-c2ccc(Cl)c(Cl)c2)nc(-c2ccnc(-c3cccc(S(N)(=O)=O)c3)c2)n1
melting point: 202 °C

compound: c1ccc(-c2csc(Nc3cc4ccccc4cn3)n2)cc1
melting point: 265 to 267 °C

compound: CCNC(=O)n1nc(Oc2c(F)cc(C(F)(F)F)cc2Cl)cc1C
melting point: 58 to 60 °C

compound: CCOCc1nc2c(N)nc3cc(-n4ccnc4)cnc3c2n1CC(C)C
melting point: 175 to 176 °C

compound: CC1ON(C)C(=O)C1=Cc1cc(C(C)(C)C)c(O)c(C(C)(C)C)c1 (stereo unspecified)
melting point: 147 to 150 °C

compound: c1ccc(C(Nc2ccncc2)c2ccccc2)cc1
melting point: 148 to 150 °C

compound: CCCC12CCC3=C(CCc4cc(O)ccc43)C1CCC2O (stereo unspecified)
melting point: 210 to 218 °C

compound: O=C1N(Cc2nnc(C(F)(F)F)o2)c2ccccc2C12COc1cc3c(cc12)OCCO3 (stereo unspecified)
melting point: 137 to 139 °C

====

compound: Cn1c(C(F)(F)F)cc(=O)n(C)c1=O
melting point: 85 to 87 °C
--
compound: O=C1OC(CCc2ccccc2)(c2ccccc2)CC(O)=C1Sc1ccccc1 (stereo not given)
melting point: 58 to 60 °C
--
compound: Cc1cc(C)cc(OCC(C)O)c1 (stereo not given)
melting point: 48.7 to 49.5 °C
--
compound: O=C(O)Cc1ccc(NC(=O)C(COc2ccccc2Cl)NS(=O)(=O)c2ccc(Cl)cc2)cc1 (racemic)
melting point: 190 to 191 °C
--
compound: COc1ccc(-c2nn(CCCCCCBr)c(=O)c3ccccc23)cc1OC
melting point: 83 to 84 °C
--
compound: Cc1noc(C)c1Cn1cc(N2C(=O)CNC2=O)cn1
melting point: 169 to 171 °C
--
compound: CCOC(=O)c1cnc2ccc(OC)nc2c1Nc1ccc(OC)cc1
melting point: 115 to 117 °C
--
compound: COc1cc(C(C)=O)ccc1OCCN1CCC(c2noc3cc(F)ccc23)CC1
melting point: 132 to 134 °C
--
compound: O=C(O)CCNC(=O)C(=Cc1ccc(Oc2ccccc2)cc1)CS
melting point: 108 °C
--
compound: COC(=O)[C@H](Cc1ccc(N)cc1)NC(=O)OC(C)(C)C
melting point: 86 to 89 °C
--
compound: c1ccc2c(c1)SCCc1c-2n(CCN2CCCCC2)c2ccccc12
melting point: 118 °C
--
compound: COc1ccc(-c2sc3c(c2CN(C)Cc2ccccc2)c(=O)c(C(C)O)cn3Cc2ccccc2F)cc1 (stereo not given)
melting point: 183 to 187 °C
--
compound: CC(CCl)(c1cc(Cl)nnc1Cl)C(Cl)Cl (stereo not given)
melting point: 82 to 85 °C
--
compound: O=C(O)CCSc1ccc(CNC(=O)C2Cc3ccccc3N2S(=O)(=O)c2ccc(-c3cccc(C(F)(F)F)c3)cc2)cc1 (stereo not given)
melting point: 77 to 81 °C
--
compound: Nc1cccc(CN2C(=O)[C@H]3CCC[C@H]3Nc3ccccc32)c1 (relative stereo)
melting point: 176 to 178 °C
--
compound: CN(C)c1cccc(NC(=O)N(C[C@H]2CC[C@H](CN(C(=O)Nc3cccc(N(C)C)c3)C3CCCCCC3)CC2)C2CCCCCC2)c1
melting point: 151 to 156 °C
--
compound: Cc1cc(C2=NOC(c3cc(Cl)cc(Cl)c3)(C(F)(F)F)C2)ccc1C(=O)NCC(N)=O (stereo not given)
melting point: 87 to 91 °C
--
compound: Cc1ccc(-c2cn(C)c(-c3ccc4c(c3)C(C)(C)c3ccccc3-4)n2)s1
melting point: 188 to 191 °C
--
compound: CCCn1c(=S)[nH]c(=S)c2[nH]c(C3CC3)nc21
melting point: > 245 °C
--
compound: CN(C)C(=O)c1ccc(Nc2nc(OCC3CCCCC3)c3nc[nH]c3n2)cc1
melting point: 184 to 186 °C
--
compound: NC(=O)c1c(F)ccc(OCC=CC(=O)O)c1F
melting point: 187 to 188 °C
--
compound: CC(C#N)(c1ccc(F)cc1)c1ccc([N+](=O)[O-])cc1Cl (stereo not given)
melting point: 133 °C
--
compound: CCN1c2ncc(C=O)cc2C(=O)N(C)c2ccc(F)nc21
melting point: 133 to 134 °C
--
compound: Cn1nnnc1CN1C2CCC1CC(Oc1ccc(Cl)c(Cl)c1)C2 (stereo not given)
melting point: 119 to 120 °C
--
compound: CC(=O)NC1=C(C#N)C(c2cccc([N+](=O)[O-])c2)c2ccc3ccccc3c2O1 (stereo not given)
melting point: 234 to 236 °C
--
compound: Nc1nc2ccccc2c2c1ncn2CCCCNC(=O)c1ccncc1
melting point: 213 to 214 °C
--
compound: COc1ccccc1C1=CCN(C[C@@H](CC2CCCCC2)NC(=O)C2(C)CCCCC2)CC1
melting point: 93 to 95 °C
--
compound: COc1ccccc1OCC1NC(C)(C)C(C(=O)O)S1 (stereo not given)
melting point: 136 to 138 °C
--
compound: N#CC1Sc2ccccc2-c2ccccc21 (stereo not given)
melting point: 114 to 116 °C
--
compound: CCSC1=N[C@@H](c2ccc(OC)cc2)[C@@H](c2ccc(OC)cc2)N1
melting point: 92 to 93 °C
--
compound: NC(=O)c1cc(OCCCN2CCN(c3cccc4sccc34)CC2)c2ccccc2n1
melting point: 153 to 154 °C
--
compound: CO/C=C(/C(=O)OC)c1c(O)c(C)nn1C
melting point: 173 °C
--
compound: Cc1cc(C)c2c(c1C)OC(C)(CBr)C2 (stereo not given)
melting point: 39 to 40 °C
--
compound: COc1ccc(CNC(=O)c2[nH]c3ccc(Cl)cc3c2S(=O)(=O)c2ccccc2)cc1
melting point: 205 to 206 °C
--
compound: CC(=O)Nc1ccc(S(=O)(=O)Nc2cscn2)cc1
melting point: 231 to 232 °C
--
compound: CN1C(=O)c2c(n3cncc3c3[nH]c4ncccc4c23)C1=O
melting point: 304 to 307 °C
--
compound: Cc1c(CN2CCN(c3cccc(Cl)c3)C2=O)ncn1C(c1ccccc1)(c1ccccc1)c1ccccc1
melting point: 189 to 191 °C
--
compound: CC(C(=O)NC(=O)OC1CCCCC1)(c1ccccc1)c1ccccc1
melting point: 126 °C
--
compound: CON1CCN2C(=O)C(c3cc(C)ccc3C)C(=O)N2CC1
melting point: 167 to 169 °C
--
compound: CCCCOC(=O)CN(C(=O)C(F)(F)F)C(NC(C)C)P(=O)(O)OSCC (stereo not given)
melting point: 64 to 65 °C
